- Assay procedure: Brain targeting and brain distribution study in rats
- Format: in vivo, SD rats
- Test conditions: male, SD, rat, iv, plasma, single i.v. 3 mg/kg
Outcome measure: Tmax
Write your answer as a measured quantity: the number, then the unit.

Problem: Output Tmax of COc1cc(/C=C/c2ccc(O)cc2)cc(OC)c1 [free Pt, 3,5-dimethoxy-4′-hydroxy-trans-stilbene]
Result: 5 min

====

- Assay procedure: Brain targeting and brain distribution study in rats
- Format: in vivo, SD rats
- Test conditions: male, SD, rat, iv, brain, single i.v. 3 mg/kg
Outcome measure: half-life (min)
Record the value in min, omitting the unit from your answer.

Problem: Return value of half-life for input COc1cc(/C=C/c2ccc(O)cc2)cc(OC)c1 [free Pt, 3,5-dimethoxy-4′-hydroxy-trans-stilbene] , no commentary.
Result: 22.4

Data provenance is paper PMC9848421.
